Assay: BET inhibitor-based combinations targeting novel dependencies in MECOM-rearranged (r) AML: HNT-34 cell line (AID 2202234); also: nearly all actives have a fitted effect of over 35% in size; also: potency is read from the fitted curve at half-maximal effect
Settings: HNT-34 AML viability, CellTiter-Glo luminescence, 48 h; series mostly up to 46 µM
Results filed as inconclusive are left out. Activity calls are given as the source filed them. Calls follow the shape of the dose curve; as a rule, active = well fitted inhibition curve with a large enough effect; inconclusive = small, poorly fitted or top-dose-only effect; inactive = no such curve, though single readings can be large or run the other way.
MEASURED_ATTRIBUTE: Potency

Consider the worked cases shown below.
[[record]]
molecule = "CS(=O)(=O)Nc1cc2occ(NC=O)c(=O)c2cc1Oc1ccccc1"
observed_result = "inactive"

[[record]]
molecule = "Cc1cc(C(=O)Nc2cc(Nc3ccc4c(/C=C/c5ccccn5)n[nH]c4c3)ccc2F)n(C)n1"
observed_result = "7.42 µM (active)"

[[record]]
molecule = "CCCCOc1ccc(CC(=O)NO)cc1"
observed_result = "20.9 µM (active)"

[[record]]
molecule = "CC1=C2C[C@H]3[C@@H](CC[C@@H]4C[C@H](NS(C)(=O)=O)CC[C@@]43C)[C@@H]2CC[C@@]2(C1)O[C@@H]1C[C@H](C)CN[C@H]1[C@H]2C"
observed_result = "16.6 µM (active)"


Q: Quick check: Potency of CCCCNc1ncc2c(-c3ccc(F)cc3)nn(CC3CCC(N)CC3)c2n1 (stereo not given) ?
Result: 4.56 µM (active)

Q: Quick check: Potency of "COc1ccc(Cl)c(Nc2nc3ccccc3nc2NS(=O)(=O)c2cccc(NC(=O)C(C)(C)N)c2)c1" ?
Result: 23.5 µM (active)

Q: Quick check: Potency of "NC(=O)C1=C(O)[C@@]2(O)C(=O)C3=C(O)c4c(O)cccc4C[C@H]3C[C@H]2CC1=O" ?
Result: 8.33 µM (active)

----------
Assay: BET inhibitor-based combinations targeting novel dependencies in MECOM-rearranged (r) AML: UCSD-AML1 cell line (AID 2202235); also: nearly all actives have a fitted effect of over 40% in size
Details: UCSD-AML1 AML cells viability, CellTiter-Glo, 48 h; series mostly up to 46 µM
Inconclusive results are not listed. Active and inactive are the calls of the source. Calls come from the whole dose curve; as a rule, active = well fitted inhibition curve with a large enough effect; inconclusive = small, poorly fitted or top-dose-only effect; inactive = no such curve, though single readings can be large or run the other way.
Pick one and only one: yes (1) = active, no (0) = inactive

Worked cases, answers included:
[[record]]
compound = "Cc1ccc(C(=O)OCc2ccc([C@@H](CN)C(=O)Nc3ccc4cnccc4c3)cc2)c(C)c1"
classification = "yes (1)"

[[record]]
compound = "O=C(O)c1ccccc1-c1ccc(/C=c2\\sc3nc4cc(Br)cnc4n3c2=O)o1"
classification = "no (0)"

[[record]]
compound = "O=C1CC[C@H](N2Cc3c(OCc4ccc(CN5CCOCC5)cc4)cccc3C2=O)C(=O)N1"
classification = "no (0)"


Q: Name the outcome recorded for COc1cc(F)ccc1-c1ncnc(Nc2cccc(CS(C)(=N)=O)c2)n1 (stereo not given) in the assay.
Result: yes (1)

Q: Name the outcome recorded for "CN1CC(=O)N2[C@H](c3ccc4c(c3)OCO4)c3[nH]c4ccccc4c3C[C@@H]2C1=O" in the assay.
Result: no (0)

----------
Molecular target: Aldehyde dehydrogenase, mitochondrial (Homo sapiens) (UniProt P05091)
Experiment: qHTS for Inhibitors of the Aldehyde Dehydrogenase Family (ALDH2) Primary screen (AID 2061308);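 also: plate controls were vehicle for no effect and reference inhibitor for full effect; nearly all actives have a fitted effect of over 55% in size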
Conditions: ALDH2 enzyme inhibition qHTS, 1536-well; series mostly up to 56 µM
Results filed as inconclusive are left out. The source made the active and inactive calls. Calls follow the shape of the dose curve; as a rule, active = well fitted inhibition curve with a large enough effect; inconclusive = small, poorly fitted or top-dose-only effect; inactive = flat fitted curve, though single readings scatter.
MEASURED_ATTRIBUTE: outcome

Consider the worked cases shown below.
[[record]]
mol_smiles = "O=S(=O)(c1ccc2c(c1)OCCO2)N1CCN(S(=O)(=O)c2ccc(Br)cc2F)CC1"
observed_result = "inactive"

[[record]]
mol_smiles = "COc1ccc(C(=O)Nc2ccc(-c3nc4ccccc4[nH]3)cc2)cc1F"
observed_result = "inactive"

[[record]]
mol_smiles = "Cc1ccc(NC(=O)CSc2nnc(-c3cccc([S+](=O)([O-])N4CCCC4)c3)n2-c2c(C)cccc2C)cc1"
observed_result = "inactive"

[[record]]
mol_smiles = "O=C(Nc1ccc2ccccc2c1)Nc1nnc(-c2ccccc2F)s1"
observed_result = "inactive"

[[record]]
mol_smiles = "O=C(Cc1ccccc1)Nc1nnc(-c2ccncc2)s1"
observed_result = "inactive"


Q: Quick check: outcome of "CN(C)CC(=O)Nc1ccc2[nH]c(=O)c3ccccc3c2c1" ?
Result: inactive

Q: Quick check: outcome of "Cc1csc(CNc2ncnc3ccc(-c4ccco4)cc23)c1" ?
Result: inactive

----------
Assay: BET inhibitor-based combinations targeting novel dependencies in MECOM-rearranged (r) AML: HNT-34 cell line (AID 2202234); also: nearly all actives have a fitted effect of over 35% in size
Conditions: HNT-34 AML viability, CellTiter-Glo luminescence, 48 h; series mostly up to 46 µM
Inconclusive results are not listed. Activity calls are given as the source filed them. Calls come from the whole dose curve; as a rule, active = well fitted inhibition curve with a large enough effect; inconclusive = small, poorly fitted or top-dose-only effect; inactive = no such curve, though single readings can be large or run the other way.
Pick one and only one: true (1) for active, false (0) for inactive

Worked cases, answers included:
[[record]]
compound = "NC1=N[C@@]2(c3cc(NC(=O)c4ccc(F)cn4)ccc3F)COC[C@H]2CS1"
classification = "false (0)"

[[record]]
compound = "Cn1c(NC[C@@H](N)Cc2ccccc2)nc(-c2ccncc2)c(-c2ccc3ccccc3c2)c1=O"
classification = "true (1)"

[[record]]
compound = "CCNCCc1ccc(CN(CC)c2cc(OC)ccc2[C@@H]2CCc3cc(O)ccc3C2)cc1"
classification = "true (1)"

[[record]]
compound = "O=C(CO)N1CCC(c2[nH]nc(-c3ccc(Cl)cc3)c2-c2ccncn2)CC1"
classification = "false (0)"

[[record]]
compound = "CN(C)N=Nc1nc[nH]c1C(N)=O"
classification = "false (0)"


Q: Name the outcome recorded for "O=C1NC(=O)[C@@H](c2c[nH]c3ccccc23)[C@H]1c1cn2c3c(cccc13)CCC2" in the assay.
Result: true (1)

Q: Name the outcome recorded for "CCN(CC)C(=O)Cc1csc(NS(=O)(=O)c2cccc(Cl)c2C)n1" in the assay.
Result: false (0)

Q: Name the outcome recorded for "O=C(C[C@@H]1C/C=C\CCC(=O)O[C@H](c2ccccc2)CNC1=O)NCc1ccc(Cl)cc1" in the assay.
Result: false (0)

Q: Name the outcome recorded for "CC(C)(C)OC(=O)Nc1ccc(-c2cc(C(=O)NCCCCCCC(=O)NO)no2)cc1" in the assay.
Result: true (1)

Q: Name the outcome recorded for "O=C(O)c1ccc(CN2CCC(CN[C@@H]3C[C@H]3c3ccccc3)CC2)cc1" in the assay.
Result: false (0)

----------
Target: Aldehyde dehydrogenase, mitochondrial (Homo sapiens)
Test: qHTS for Inhibitors of the Aldehyde Dehydrogenase Family (ALDH2) Primary screen (AID 2061308);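 also: plate controls were vehicle for no effect and reference inhibitor for full effect; nearly all actives have a fitted effect of over 55% in size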
Conditions: ALDH2 enzyme inhibition qHTS, 1536-well; series mostly up to 56 µM
Records with an inconclusive call do not appear. The source made the active and inactive calls. The call rests on the fitted dose curve; in most records, active means well fitted inhibition curve with a large enough effect; inconclusive means small, poorly fitted or top-dose-only effect; inactive means flat fitted curve, though single readings scatter.
Pick one and only one: 1 (yes) (active), 0 (no) (inactive)

Worked cases, answers included:
[[record]]
molecule = "COc1cccc(-c2csc(N3CCC(C(N)=O)CC3)n2)c1"
classification = "0 (no)"

[[record]]
molecule = "Clc1cccc(-c2ccc3ncnc(NCc4cccs4)c3c2)c1"
classification = "0 (no)"

[[record]]
molecule = "COc1ccc(CNc2ccc(S(=O)(=O)Nc3nccs3)cc2)cc1O"
classification = "0 (no)"

[[record]]
molecule = "CCCN(CCC)C(=O)C(CCC(=O)OCCCN1CCN(CCOC(=O)Cc2c(C)n(C(=O)c3ccc(Cl)cc3)c3ccc(OC)cc23)CC1)NC(=O)c1ccccc1 (stereo unspecified)"
classification = "0 (no)"

[[record]]
molecule = "CN(CC(=O)Nc1cccc(N2CCOCC2)c1)Cc1c(O)ccc2ccccc12"
classification = "0 (no)"

[[record]]
molecule = "COc1cc(-c2ccc3ncnc(NCc4nc(C)cs4)c3c2)cc(OC)c1OC"
classification = "0 (no)"


Please turn your attention to the following entry.
Q: Name the outcome recorded for "Cc1cc(NS(=O)(=O)c2ccc(NC(=O)Cc3ccc(C)c(F)c3)cc2)no1" in the assay.
Result: 0 (no)

----------
Assay: BET inhibitor-based combinations targeting novel dependencies in MECOM-rearranged (r) AML: AML-191 cell line (AID 2202236; also: nearly all actives have a fitted effect of over 35% in size)
Conditions: AML-191 viability, CellTiter-Glo luminescence, 48 h; series mostly up to 46 µM
Inconclusive results are not listed. Active and inactive are the calls of the source. Calls follow the shape of the dose curve; as a rule, active = well fitted inhibition curve with a large enough effect; inconclusive = small, poorly fitted or top-dose-only effect; inactive = flat fitted curve, though single readings scatter.
Pick one and only one: t for active, f for inactive

Q: Name the outcome recorded for "CNC(=O)[C@H](Cc1c[nH]c2ccccc12)NC(=O)[C@@H](CC(=O)NO)CC(C)C" in the assay.
Result: f

Q: Name the outcome recorded for CC(=O)O[C@H]1C(=O)[C@@]2(C)C([C@H](OC(=O)c3ccccc3)[C@]3(O)C[C@H](OC(=O)[C@H](O)[C@@H](NC(=O)c4ccccc4)c4ccccc4)C(C)=C1C3(C)C)[C@]1(OC(C)=O)CO[C@@H]1C[C@@H]2O (some centres undefined) in the assay.
Result: t

Q: Name the outcome recorded for "CC(C)=CCC[C@](C)(O[C@@H]1O[C@H](CO[C@@H]2O[C@H](CO)[C@@H](O)[C@H](O)[C@H]2O)[C@@H](O)[C@H](O)[C@H]1O)[C@H]1CC[C@]2(C)[C@@H]1[C@H](O)C[C@@H]1[C@@]3(C)CC[C@H](O[C@@H]4O[C@H](CO)[C@@H](O)[C@H](O)[C@H]4O[C@@H]4O[C@H](CO)[C@@H](O)[C@H](O)[C@H]4O)C(C)(C)[C@@H]3CC[C@]12C" in the assay.
Result: f

Q: Name the outcome recorded for "CC1(C)O[C@@H]2C[C@H]3[C@@H]4C[C@H](F)C5=CC(=O)C=C[C@]5(C)[C@@]4(F)[C@@H](O)C[C@]3(C)[C@]2(C(=O)CO)O1" in the assay.
Result: f

Q: Name the outcome recorded for "CCC[C@H](Nc1nc(-c2ccc(NC(=O)NCC)c(OC)c2)ncc1C)c1cccnc1" in the assay.
Result: t

Recorded values, source PubChem BioAssay (NCATS).
